The following compounds are listed with their measured selectivity ratio values.
experimental.protocol: Antihepatotoxic effect: duration of hexobarbital sleep of the rat after liver damage by CCl4
applied.conditions: rat, in vivo, TQ (LD50/ED50), antihepatotoxic effect, LD50 mouse i.p. / ED50 rat p.o.; Table III
Description: The compounds to be tested are administered 1 hour prior to the administration of CCl4 orally in a liquid volume of 10 ml/kg. The antihepatotoxic effect of the compounds to be tested (sodium salts in aqueous solution) is determined by the reduction of the prolongation of sleeping period caused by the CCl4 liver cell damage in the groups treated, as compared with the prolongation of the sleeping period of the CCl4 control group (=100%). […]
I'd appreciate a reply containing only the number, no unit.

[[record]]
compound = "COc1ccc(CCN(CCCC(=O)O)C(=O)c2ccc(Cl)cc2)cc1OC"
recorded_number = 7.8


## Task Which selectivity ratio value is on record for CC(=O)N(CCCC(=O)O)C(c1ccccc1)c1ccccc1 [Serial No. 14, N-acetyl-4-benzhydrylaminobutyric acid] ?
## Result 110

Origin of measurements: patent US4243678A
